B1: HDV Ribozyme (parent)
chain: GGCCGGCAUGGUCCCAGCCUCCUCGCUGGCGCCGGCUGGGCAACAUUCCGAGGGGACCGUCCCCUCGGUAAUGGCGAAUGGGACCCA

- Variants of: B1
- METHOD SUMMARY: self-cleavage, relative activity (ratio to wild type); higher = more cleavage; co-transcriptional
Mark F for self-cleavage values under 0.3, and T for everything at or above.

Answered cases to consult:
GGCCGGCAUGGUCCCAGCCUCCUCGCUGGCGGCGGCUGGGCAACAUUCCGAGGGGACCGUCCCCUCGGUAAUGUCGAAUGGGACCCA [C32G G74U] ... F
GGCCGGCCUGGUCCCAGCCUCCUCGCUGGCGCCGGCUCGGCAACAUUCCGAGGGGACCGUCCCCUCGGUAAUGGCGAAUGGGACCCA [A8C G38C] ... F
GGCCGGCGUGGUCCCAGCAUCCUCGCUGGCGCCGGCUGGGCAACAUUCCGAGGGGACCGUCCCCUCGGUAAUGGCGAAUGGGACCCA [A8G C19A] ... F
GGCCGGCAUGGUCCCAGCCUCCUCGCUGUCGCCGGCUGGGCAACAUUCCGAGGGGACCGUCCCCUCGGUAAUGGCGAAUGGGACCAA [G29U C86A] ... F
GGCCGGCAUGGUCCCAGCCUCCUCGCUGGCGCCGGCUGGGCAACAUUCCGAGGAGACCGUCCCCGCGGUAAUGGCGAAUGGGACCCA [G54A U65G] ... T

Q) Would you say GGCCGGCAUGGUCCAAGCCUCCUCGCUGGCGCCGGCUGGGCAACAUUCCGAGGGGACCGUCCCAUCGGUAAUGGCGAAUGGGACCCA [C15A C64A] shows self-cleavage at minimum 0.3?
A) T

Q) Is reported self-cleavage greater than or equal to 0.3 here: GGCCGGCAUGGUCCCAGCCUCCUCGCUGGCGCCGGCUGGGCAACAUUACGAGGGGACCUUCCCCUCGGUAAUGGCGAAUGGGACCCA [C48A G59U]
A) T

Q) Decide: is the reported value of self-cleavage for GGCCGGCAUGGUCCCAGCCUCCUCGCUGGCGCCGGCUGGGCAACAUUCCGAGGGGACCGUCCCCUCAGUAAUGGCGAAUCGGACCCA [G67A G80C] equal to or greater than 0.3?
A) F

Q) # check: self-cleavage of GGCCGGCAUGGUCCCAGCCUCCUCGCUGGCGACGGCUGGGCACCAUUCCGAGGGGACCGUCCCCUCGGUAAUGGCGAAUGGGACCCA [C32A A43C] is greater than or equal to 0.3
A) F

Q) Please indicate if the recorded self-cleavage for GGCCGGCAUGGUCCCAGCCUCCGCGCCGGCGCCGGCUGGGCAACAUUCCGAGGGGACCGUCCCCUCGGUAAUGGCGAAUGGGACCCA [U23G U27C] meets or exceeds 0.3.
A) T
